- System: SNB-19 CNS
- experiment: NCI tumour cell line growth inhibition, 48 h
Please respond with reported GI50 for every item in the list.

Below are worked cases with known answers.
compound="COC1=CC(c2ccc[nH]2)=N/C1=C\\c1[nH]c(C)c(C(=O)CCC(=O)Oc2ccc3c(c2)CCC2C3CC[C@]3(C)C(=O)CC[C@@H]23)c1C (stereo partly drawn)" system="SNB-19 CNS" quantity_measured=GI50 reading="17.7 µM"
compound=COc1ccc(/C=C2/CN(C(=O)c3ccccc3F)C/C(=C\c3ccc(OC)cc3)C2=O)cc1 system="SNB-19 CNS" quantity_measured=GI50 reading="6.21 µM"
compound=O=S(=O)(Nc1ccc(-c2nc(-c3cccc(OCCN4CCOCC4)c3)c(-c3ccnc(Br)c3)[nH]2)cc1)c1ccccc1 system="SNB-19 CNS" quantity_measured=GI50 reading="6.07 µM"
compound=C=C1C(=O)O[C@H]2[C@H]1CC/C(COC(=O)OCCCCCOC(=O)OC/C1=C/CC[C@@]3(C)O[C@H]3[C@H]3OC(=O)C(=C)[C@@H]3CC1)=C\CC[C@@]1(C)O[C@@H]21 system="SNB-19 CNS" quantity_measured=GI50 reading="2.1 µM"
compound=CS(=O)(=O)c1nccc(-c2c(-c3cccc(OCc4ccc(F)cc4)c3)nc3sccn23)n1 system="SNB-19 CNS" quantity_measured=GI50 reading="26 µM"
compound=Cn1ncc2c(Nc3ccc(Br)cc3)nc(Nc3ccc(Br)cc3)nc21 system="SNB-19 CNS" quantity_measured=GI50 reading="6.42 µM"
compound=[Cu+2].[Cu+2].[O-]c1ccccc1C=Nc1ccccc1[O-].[O-]c1ccccc1C=Nc1ccccc1[O-] system="SNB-19 CNS" quantity_measured=GI50 reading="5.32 µM"

Now look at this entry.
Data request, read-out GI50, for COc1ccc(-c2cc3cccc(OC)c3c(=O)o2)cc1OC
41.3 µM
